# Assayed system: RNF31 PUB domain (Homo sapiens, UniProt Q96EP0)
# Construct: MBP-TEV (N, cleaved yes); made in house; host or cells: E. coli BL21 (DE3) pLysS
# Sequence (Q96EP0 1-179): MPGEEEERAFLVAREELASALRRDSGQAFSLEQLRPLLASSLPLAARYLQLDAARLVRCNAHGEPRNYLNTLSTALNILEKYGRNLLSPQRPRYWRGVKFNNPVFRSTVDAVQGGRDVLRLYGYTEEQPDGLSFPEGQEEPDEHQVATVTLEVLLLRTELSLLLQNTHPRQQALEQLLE
# Test description: Phage Library Screening with NGS, RNF31 PUB domain
# Format: binding
# Particulars: RNF31 PUB domain clusters C41-C45; target concentration 10
Bridge positions count the residues as written; N and C are the ends. Ends that are not written are not given here.
Known Phage library screen NGS readout, Target Concentration 10 of a selection of sequences
Measure: Phage library screen NGS readout, Target Concentration 10

| Input sequence | Assayed system | Recorded value |
| --- | --- | --- |
| DPAMQECMDAAIMCTYA | RNF31 PUB domain (Homo sapiens, UniProt Q96EP0) | 0 |
| DPALRDCLDAAIMCTYT | RNF31 PUB domain (Homo sapiens, UniProt Q96EP0) | 0 |
| DPAWWNCLYAADECWSW | RNF31 PUB domain (Homo sapiens, UniProt Q96EP0) | 0 |
| DPAEDWCMYAAWDCQME | RNF31 PUB domain (Homo sapiens, UniProt Q96EP0) | 1 |
| DPAYDLCLNAAVACTYV | RNF31 PUB domain (Homo sapiens, UniProt Q96EP0) | 0 |
| DPAYWDCLYAAWSCDIL | RNF31 PUB domain (Homo sapiens, UniProt Q96EP0) | 0 |
| DPAWQECVIAALVCDTY | RNF31 PUB domain (Homo sapiens, UniProt Q96EP0) | 0 |
| DPAIVQCAWAALYCDMQ (Ac-DPAIVQCAWAALYCDMQ-NH2; bridge 7-14; also: Cys-Cys staple, linker not named) | RNF31 PUB domain (Homo sapiens, UniProt Q96EP0) | 0 |
| DPAQYQCWNAAMSCSYS | RNF31 PUB domain (Homo sapiens, UniProt Q96EP0) | 1 |
| DPAYDYCLYAAYDCTQT | RNF31 PUB domain (Homo sapiens, UniProt Q96EP0) | 0 |
| DPAYSLCISAAVECTYY | RNF31 PUB domain (Homo sapiens, UniProt Q96EP0) | 0 |
| DPAMEWCWDAAVFCTYS | RNF31 PUB domain (Homo sapiens, UniProt Q96EP0) | 1 |
| DPAWDYCMYAAYDCNHS | RNF31 PUB domain (Homo sapiens, UniProt Q96EP0) | 2 |
| DPAYDWCLYAAEYCHTD | RNF31 PUB domain (Homo sapiens, UniProt Q96EP0) | 0 |
| DPAWEWCLYAAAECIED | RNF31 PUB domain (Homo sapiens, UniProt Q96EP0) | 0 |
| DPAYDWCMYAAHECVDQ | RNF31 PUB domain (Homo sapiens, UniProt Q96EP0) | 0 |
| DPALVTCTWAAIYCDDF | RNF31 PUB domain (Homo sapiens, UniProt Q96EP0) | 1 |
| DPAYDYCLYAAQDCVWW | RNF31 PUB domain (Homo sapiens, UniProt Q96EP0) | 0 |
| DPAFWECMYAASDCDAS | RNF31 PUB domain (Homo sapiens, UniProt Q96EP0) | 0 |
| DPAFDWCLYAADDCAET | RNF31 PUB domain (Homo sapiens, UniProt Q96EP0) | 1 |
| DPAIQECYLAAQVCTTY | RNF31 PUB domain (Homo sapiens, UniProt Q96EP0) | 0 |
| DPALDYCLYAAYDCMYA | RNF31 PUB domain (Homo sapiens, UniProt Q96EP0) | 0 |
| DPAEWDCLYAAFDCFAN | RNF31 PUB domain (Homo sapiens, UniProt Q96EP0) | 2 |
| DPAEDECQDAAILCSYN | RNF31 PUB domain (Homo sapiens, UniProt Q96EP0) | 1 |
| DPAEDECDWAALYCDMQ | RNF31 PUB domain (Homo sapiens, UniProt Q96EP0) | 0 |
| DPAWLDCIYAAYDCVTD | RNF31 PUB domain (Homo sapiens, UniProt Q96EP0) | 1 |
| DPANFTCRVAADVCSTY | RNF31 PUB domain (Homo sapiens, UniProt Q96EP0) | 0 |
| DPATEACFDAAIECTYY | RNF31 PUB domain (Homo sapiens, UniProt Q96EP0) | 0 |
| DPAWMDCLYAAYDCQHM | RNF31 PUB domain (Homo sapiens, UniProt Q96EP0) | 2 |
| DPAIWECVSAAAVCMTY | RNF31 PUB domain (Homo sapiens, UniProt Q96EP0) | 0 |
| DPAAWECHIAAFVCSTY | RNF31 PUB domain (Homo sapiens, UniProt Q96EP0) | 1 |
| DPAMQDCQLAALVCTTY | RNF31 PUB domain (Homo sapiens, UniProt Q96EP0) | 0 |
| DPAYYTCDWAAIYCDYH | RNF31 PUB domain (Homo sapiens, UniProt Q96EP0) | 0 |
| DPAWTDCDWAALYCDES | RNF31 PUB domain (Homo sapiens, UniProt Q96EP0) | 0 |
| DPAQEECFEAAVFCSYY | RNF31 PUB domain (Homo sapiens, UniProt Q96EP0) | 2 |
| DPAFAQCEVAAMVCTTY | RNF31 PUB domain (Homo sapiens, UniProt Q96EP0) | 0 |
| DPAAEDCHIAAMVCMTY | RNF31 PUB domain (Homo sapiens, UniProt Q96EP0) | 0 |
| DPALEDCQWAALYCDEY | RNF31 PUB domain (Homo sapiens, UniProt Q96EP0) | 0 |
| DPAQYQCDIAAQVCSTY | RNF31 PUB domain (Homo sapiens, UniProt Q96EP0) | 0 |
| DPAWWNCLYAANTCVED | RNF31 PUB domain (Homo sapiens, UniProt Q96EP0) | 0 |
| DPAWNDCLYAAETCISW | RNF31 PUB domain (Homo sapiens, UniProt Q96EP0) | 1 |
| DPAYDWCLYAAYQCDQN | RNF31 PUB domain (Homo sapiens, UniProt Q96EP0) | 0 |
| DPALWDCLYAADACITS (not fully specified; cysteine pairing not given here) | RNF31 PUB domain (Homo sapiens, UniProt Q96EP0) | 0 |
| DPAYWDCLYAAADCAFY | RNF31 PUB domain (Homo sapiens, UniProt Q96EP0) | 0 |
| DPAQEACWDAAIMCTYR | RNF31 PUB domain (Homo sapiens, UniProt Q96EP0) | 0 |
| DPAYTLCSWAAMYCDSM | RNF31 PUB domain (Homo sapiens, UniProt Q96EP0) | 0 |
| DPAEEYCLEAAILCTYD | RNF31 PUB domain (Homo sapiens, UniProt Q96EP0) | 0 |
| DPAIAQCMLAAQVCSTY | RNF31 PUB domain (Homo sapiens, UniProt Q96EP0) | 2 |
| DPALEICWDAAIQCSYV | RNF31 PUB domain (Homo sapiens, UniProt Q96EP0) | 2 |
| DPASEWCLDAAVLCTYS | RNF31 PUB domain (Homo sapiens, UniProt Q96EP0) | 0 |
| DPAVVDCWDAAVQCTYY | RNF31 PUB domain (Homo sapiens, UniProt Q96EP0) | 0 |
| DPAFQFCVEAAVACSYY | RNF31 PUB domain (Homo sapiens, UniProt Q96EP0) | 0 |
| DPAWTQCDWAALYCEDQ | RNF31 PUB domain (Homo sapiens, UniProt Q96EP0) | 0 |
| DPAQHECIYAAWDCDML | RNF31 PUB domain (Homo sapiens, UniProt Q96EP0) | 1 |
| DPAYEDCAWAALYCDMT | RNF31 PUB domain (Homo sapiens, UniProt Q96EP0) | 0 |
| DPAIDACYDAAVMCTYV | RNF31 PUB domain (Homo sapiens, UniProt Q96EP0) | 0 |
| DPAHDWCLYAAYDCRVY | RNF31 PUB domain (Homo sapiens, UniProt Q96EP0) | 0 |
| DPAFHDCQFAAAVCSTY | RNF31 PUB domain (Homo sapiens, UniProt Q96EP0) | 0 |
| DPARRECWDAAILCTYY | RNF31 PUB domain (Homo sapiens, UniProt Q96EP0) | 0 |
| DPAADDCEWAALYCSFH | RNF31 PUB domain (Homo sapiens, UniProt Q96EP0) | 2 |
| DPAFMDCVFAAAVCATY | RNF31 PUB domain (Homo sapiens, UniProt Q96EP0) | 0 |
| DPASHMCLEAAVMCTYD | RNF31 PUB domain (Homo sapiens, UniProt Q96EP0) | 0 |
| DPAWWDCMYAASHCDTV | RNF31 PUB domain (Homo sapiens, UniProt Q96EP0) | 0 |
| DPAWMQCMYAAWDCNIE | RNF31 PUB domain (Homo sapiens, UniProt Q96EP0) | 0 |
| DPAWEHCLYAAYDCTHE | RNF31 PUB domain (Homo sapiens, UniProt Q96EP0) | 0 |
| DPAHANCQLAADVCSTY | RNF31 PUB domain (Homo sapiens, UniProt Q96EP0) | 0 |
| DPATWWCLYAAEDCVNI | RNF31 PUB domain (Homo sapiens, UniProt Q96EP0) | 0 |
| DPAYSSCSWAAIYCNWT | RNF31 PUB domain (Homo sapiens, UniProt Q96EP0) | 1 |
| DPAIRECMLAALVCSTY | RNF31 PUB domain (Homo sapiens, UniProt Q96EP0) | 0 |

These measurements were taken from patent US20240376151A1.
